Experimental target: nNOS (Homo sapiens)
Measurement label: pKi
To interpret pKi, take it as minus log10 of a concentration measured in moles per litre.

State the recorded pKi for this entry: CN(C)c1ccc(C=C2C(=O)Nc3ccccc32)cc1 [SU4312] 4.90

====

Experimental target: rat cerebellum nNOS (Rattus norvegicus, UniProt P29476)
Measurement label: pIC50
A value of pIC50 is the negative decimal logarithm of a concentration given in moles per litre.

API: value(readout= pIC50, system= rat cerebellum nNOS (Rattus norvegicus, UniProt P29476), query= CCN(CC)CCNC(=O)c1c(C)[nH]c(/C=C2\C(=O)Nc3ccc(F)cc32)c1C ) 5.02
